molecular target: GPR139 (Homo sapiens, UniProt Q6DWJ6); experiment: GPR139 Agonist titration / agonist counterscreen assay (calcium detection, HEK-GPR139 cells); format: cell-based; parameters: expressed in transfected cells; host or cells: HEK Aequorin cells, Maxcyte transient transfection; details: GPR139 Agonist Activity; fitted dose-response curve
Sequence (Q6DWJ6 whole entry): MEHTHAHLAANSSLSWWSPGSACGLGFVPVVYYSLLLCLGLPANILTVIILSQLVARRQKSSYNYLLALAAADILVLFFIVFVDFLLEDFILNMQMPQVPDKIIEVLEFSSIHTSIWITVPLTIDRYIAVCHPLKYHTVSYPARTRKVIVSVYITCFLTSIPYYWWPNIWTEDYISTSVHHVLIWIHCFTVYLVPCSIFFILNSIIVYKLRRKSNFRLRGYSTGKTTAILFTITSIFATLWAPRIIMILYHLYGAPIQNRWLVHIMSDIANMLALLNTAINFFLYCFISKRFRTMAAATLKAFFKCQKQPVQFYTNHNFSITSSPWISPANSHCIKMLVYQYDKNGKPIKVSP
property.label: Hill Slope

Record excerpt, results attached:
{"compound": "COc1ccc(C2(C)NC(=O)N(CC(=O)NC3CCCC3)C2=O)cc1 (stereo not shown)", "test.target": "GPR139 (Homo sapiens, UniProt Q6DWJ6)", "assay.result": 0.93}
{"compound": "CCc1cccc(NC(=O)Cn2ncc3c2-c2ccccc2OC3)c1", "test.target": "GPR139 (Homo sapiens, UniProt Q6DWJ6)", "assay.result": 0.20}
{"compound": "C=C(CC1N=CC2=C1c1ccccc1CC2)NCc1ccc(C)cc1 (stereo not shown)", "test.target": "GPR139 (Homo sapiens, UniProt Q6DWJ6)", "assay.result": 0.36}
{"compound": "N#C/C(=C/c1ccc(CNS(=O)(=O)c2ccccc2)o1)C(=O)NCCc1ccccc1", "test.target": "GPR139 (Homo sapiens, UniProt Q6DWJ6)", "assay.result": 0.56}
{"compound": "CCCc1ccccc1C1=CCC(NC(=O)Cn2ncc3c2-c2ccccc2CC3)=C1", "test.target": "GPR139 (Homo sapiens, UniProt Q6DWJ6)", "assay.result": 1.23}
{"compound": "CC(C)(C)n1c2c(c(=O)[nH]c1=O)C(NC(=O)CCC1CCCCC1)(C(F)(F)F)C(=O)N2 (stereo not shown)", "test.target": "GPR139 (Homo sapiens, UniProt Q6DWJ6)", "assay.result": 0.85}
{"compound": "CN(C)CCOc1cc(-c2cn[nH]c2)ccc1NC(=O)C1COc2ccc(F)cc2C1.O=C(O)C(F)(F)F.O=C(O)C(F)(F)F (stereo not shown)", "test.target": "GPR139 (Homo sapiens, UniProt Q6DWJ6)", "assay.result": 1.08}
{"compound": "Cc1cc(C(=O)NNC(=O)CNC(=O)Cc2cccc3ccccc23)c(C)o1", "test.target": "GPR139 (Homo sapiens, UniProt Q6DWJ6)", "assay.result": 0.58}
{"compound": "COc1ccc(CCNC(=O)c2cnc(N3CCCC3CO)s2)cc1 (stereo not shown)", "test.target": "GPR139 (Homo sapiens, UniProt Q6DWJ6)", "assay.result": 0.93}
{"compound": "COc1ccc(CCNC(=O)COc2ccc(Cl)cc2Cl)cc1", "test.target": "GPR139 (Homo sapiens, UniProt Q6DWJ6)", "assay.result": 0.32}

(P) CCCCN(C)C(=O)CCC(=O)NNC1Cc2ccccc2C2=CC(C)=CC21 (stereo not shown)
(Q) O=C(COc1ccccc1F)NNC(=O)CSc1ccc2ccccc2c1
(R) O=C(NCCc1ccc(Cl)cc1)c1ccc(N2CC3CC(C2)c2cccc(=O)n2C3)c(NS(=O)(=O)c2ccc3c(c2)OCCO3)c1 (stereo not shown)
(S) CCC1Cc2ccc(C)cc2CC1C(=O)Nc1ccc(-c2cn[nH]c2)cc1OCCN(C)C (stereo not shown)
-- ask Endpoint returns the given compounds ordered by ascending Hill Slope. Output spec: a listing of the labels in the requested order.
-- reply S, R, Q, P

(1) CCCCNC(=O)NNC(=O)CSc1cc(C)c(Br)cc1C
(2) O=C(Cc1cccc2ccccc12)NCC(=O)NNC(=O)c1ccco1
-- ask Which entry has a larger number for Hill Slope, 1 or 2 ? Kindly state the label of the option you pick.
-- reply 2
(2: 1.06, 1: 0.71)

(1) C=CCC(O)(CC=C)C(C)NC(=O)CCC1(Cc2ccc3ccccc3c2)CCC(=O)N1 (stereo not shown)
(2) COc1ccc(-c2nnn(CC(=O)NCCc3c[nH]c4ccccc34)n2)cc1OC
-- ask Please compare: 1 and 2 . Report which one has the smaller Hill Slope value. Field: selected label. Fill in the label of the entry you choose.
-- reply 1
(1: 0.52, 2: 0.87)
